Task for the reader: assign each of the following molecules its reported IC50.
biological target: His-tagged recombinant human Gal-3 (hGal-3) (Homo sapiens); experiment: Gal-3 HTRF assay (hGal-3 / B-ASF binding inhibition); settings: table of Examples 5 to 25
Sequence (P17931 whole entry): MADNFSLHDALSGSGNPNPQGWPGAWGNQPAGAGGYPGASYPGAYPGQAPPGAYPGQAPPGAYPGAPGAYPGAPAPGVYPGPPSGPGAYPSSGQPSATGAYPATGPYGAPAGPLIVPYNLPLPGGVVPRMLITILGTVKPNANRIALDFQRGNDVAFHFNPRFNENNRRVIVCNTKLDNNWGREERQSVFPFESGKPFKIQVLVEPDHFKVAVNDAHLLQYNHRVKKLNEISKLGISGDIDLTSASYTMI
Your answer is read as nM, so omit the unit and give the number.

Input line: So what IC50 did Cc1nc([C@@H]2O[C@H](CO)[C@H](O)[C@H](n3cc(-c4ccc(Br)c(F)c4F)nn3)[C@H]2O)n(-c2cc(Cl)ncc2C(F)(F)F)n1 get with His-tagged recombinant human Gal-3 (hGal-3) (Homo sapiens)?
Output line: 12

Input line: Hello, I am looking for reported IC50 with His-tagged recombinant human Gal-3 (hGal-3) (Homo sapiens) for COc1c(Cl)ccc(-c2cn([C@H]3[C@@H](O)[C@@H](CO)O[C@@H](c4nc(C)nn4-c4cc(Cl)ccc4C(F)(F)F)[C@@H]3O)nn2)c1F . Could you help?
Output line: 137

Input line: Item Cc1nc([C@@H]2O[C@H](CO)[C@H](O)[C@H](n3cc(-c4ccc(Cl)c(C)c4F)nn3)[C@H]2O)n(-c2cc(Cl)ccc2C(F)(F)F)n1 with His-tagged recombinant human Gal-3 (hGal-3) (Homo sapiens) - IC50?
Output line: 18

Input line: Quick check: IC50 on His-tagged recombinant human Gal-3 (hGal-3) (Homo sapiens), item Cc1nc([C@@H]2O[C@H](CO)[C@H](O)[C@H](n3cc(-c4ccc(Br)c(F)c4F)nn3)[C@H]2O)n(-c2cc(Cl)ccc2OC(F)(F)F)n1 ?
Output line: 11

Input line: Give His-tagged recombinant human Gal-3 (hGal-3) (Homo sapiens) IC50 for COc1cc(-c2cn([C@H]3[C@@H](O)[C@@H](CO)O[C@@H](c4nc(C)nn4-c4cc(Cl)ccc4C(F)(F)F)[C@@H]3O)nn2)cc2ccccc12
Output line: 1330
